Give measured N. fowleri ATCC® 30808™ SI (CC50/IC50) for each item. Keep answers brief.
# Tested on: N. fowleri ATCC® 30808™
# test-summary: alamarBlue colorimetric activity assay, trophozoites
# Format: cell-based, Naegleria fowleri
# condition-description: selectivity index
Could you keep your reply to the number by itself?

# query: N. fowleri ATCC® 30808™ SI (CC50/IC50) of entry C=C(CCC(=O)C1(C)CCC(C(C)(C)O)O1)C1CCC2OC(C3(C)CCC(Br)C(C)(C)O3)CCC2(C)O1 (stereo not shown) [18-KetoDT (6), 18-ketodehydrothyrsiferol] 2.61

# query: N. fowleri ATCC® 30808™ SI (CC50/IC50) of entry CCCCCCCCCCCCCCCCOP(=O)([O-])OCC[N+](C)(C)C [Miltefosine, reference compound] 3.30
